Origin of the recorded values: ChEMBL document CHEMBL2040826

Provide the recorded Activity for the entries that follow.
tested on: Tobacco mosaic virus; test: In vivo antiviral activity against TMV assessed as inactivation effect at 500 ug/ml; format: functional

Problem: Which Activity value is on record for O=C(NCc1ccc(F)cc1)c1c(C(F)(F)F)nn(C/C=C/c2ccccc2)c(=O)c1O ?
Result: 0%

Problem: Which Activity value is on record for CC(C)(C)n1nc(C(F)(F)F)cc(O)c1=O ?
Result: 18.6%

Problem: Which Activity value is on record for COC(=O)c1c(C(F)(F)F)nn(C)c(=O)c1OC ?
Result: 27.3%

Problem: Which Activity value is on record for COC(=O)c1c(C(F)(F)F)nn(Cc2ccccn2)c(=O)c1O ?
Result: 18.3%

Problem: Which Activity value is on record for COC(=O)c1c(C(F)(F)F)nn(CC2CCCO2)c(=O)c1OC (configuration not stated) ?
Result: 19.7%

Problem: Which Activity value is on record for COC(=O)c1c(C(F)(F)F)nn(C(C)(C)C)c(=O)c1OC ?
Result: 0%

Problem: Which Activity value is on record for O=C(NCc1ccc(F)cc1)c1c(C(F)(F)F)nn(Cc2cccnc2)c(=O)c1O ?
Result: 18.2%

###

tested on: Tobacco mosaic virus; experiment: In vivo antiviral activity against TMV assessed as inactivation effect at 500 ug/ml; assay type: functional
So basically, the class depends on measured Activity, and the ranges are band A: < 10%; band B: ≥ 10% and < 20%; band C: ≥ 20%

Problem: Looking at CC(C)(C)n1nc(C(F)(F)F)cc(NCc2ccc(F)cc2)c1=O , which class would you pick?
Result: band B

Problem: Looking at COC(=O)c1c(C(F)(F)F)nn(Cc2ccco2)c(=O)c1OC , which class would you pick?
Result: band A

Problem: Looking at O=C(NCc1ccc(F)cc1)c1c(C(F)(F)F)nn(-c2ccccc2)c(=O)c1O , which class would you pick?
Result: band C

Problem: Looking at COC(=O)c1c(C(F)(F)F)nn(-c2ccc(F)cc2)c(=O)c1OC , which class would you pick?
Result: band A

Problem: Looking at O=C(NCc1ccc(F)cc1)c1c(C(F)(F)F)nn(-c2ccc(F)cc2)c(=O)c1O , which class would you pick?
Result: band B

Problem: Looking at O=C(NCc1ccc(F)cc1)c1c(C(F)(F)F)nn(Cc2ccccn2)c(=O)c1O , which class would you pick?
Result: band A

Problem: Looking at O=C(NCc1ccc(F)cc1)c1c(C(F)(F)F)nn(Cc2ccc(F)cc2)c(=O)c1O , which class would you pick?
Result: band C

Problem: Looking at Cn1nc(C(F)(F)F)c(C(=O)NCc2ccc(F)cc2)c(NCc2ccc(F)cc2)c1=O , which class would you pick?
Result: band C

Problem: Looking at O=C(NCc1ccc(F)cc1)c1c(C(F)(F)F)nn(-c2ccc(F)cc2)c(=O)c1NCc1ccc(F)cc1 , which class would you pick?
Result: band C

Problem: Looking at COC(=O)c1c(C(F)(F)F)nn(-c2ccccc2)c(=O)c1O , which class would you pick?
Result: band B

Problem: Looking at O=C(NCc1ccc(F)cc1)c1c(C(F)(F)F)nn(CC2CCCO2)c(=O)c1O (stereo unspecified) , which class would you pick?
Result: band B

Problem: Looking at COC(=O)c1c(C(F)(F)F)nn(Cc2ccccn2)c(=O)c1OC , which class would you pick?
Result: band A

Problem: Looking at COC(=O)c1c(C(F)(F)F)nn(C/C=C/c2ccccc2)c(=O)c1OC , which class would you pick?
Result: band C

Problem: Looking at COC(=O)c1c(C(F)(F)F)nn(-c2ccccc2)c(=O)c1OC , which class would you pick?
Result: band B

Problem: Looking at O=C(NCc1ccc(F)cc1)c1c(C(F)(F)F)nn(Cc2cccs2)c(=O)c1O , which class would you pick?
Result: band A

Problem: Looking at Cn1nc(C(F)(F)F)c(C(=O)NCc2ccc(F)cc2)c(O)c1=O , which class would you pick?
Result: band C

Problem: Looking at COC(=O)c1c(C(F)(F)F)nn(Cc2cccs2)c(=O)c1OC , which class would you pick?
Result: band B

Problem: Looking at O=c1c(O)cc(C(F)(F)F)nn1-c1ccccc1 , which class would you pick?
Result: band A

Problem: Looking at COC(=O)c1c(C(F)(F)F)nn(Cc2ccc(F)cc2)c(=O)c1OC , which class would you pick?
Result: band B

Problem: Looking at NC(=O)c1ncn([C@@H]2O[C@H](CO)[C@@H](O)[C@H]2O)n1 , which class would you pick?
Result: band C
